- System: Jurkat
- assay-info: MTS proliferation assay
- Type: cell-based, human
- stated-conditions: 72 h
pIC50: −log10 of the molar value.

[
  {
    "smiles-repr": "COc1cc(-c2cc(-c3cccnc3)cn2S(=O)(=O)/C=C/c2ccccc2)cc(OC)c1OC",
    "pIC50": "< 6.00"
  },
  {
    "smiles-repr": "COc1cc(-c2cc(CNc3ccc(-c4nnn[nH]4)cc3)cn2S(=O)(=O)c2ccc(C)cc2)cc(OC)c1OC",
    "pIC50": "< 6.00"
  },
  {
    "smiles-repr": "COc1cc(-c2cc(-c3cccnc3)cn2S(=O)(=O)c2ccc(Cl)cc2)cc(OC)c1OC",
    "pIC50": "< 6.00"
  },
  {
    "smiles-repr": "Cc1ccc(S(=O)(=O)n2cc(-c3ccc(C#N)cc3)cc2-c2cccs2)cc1",
    "pIC50": "> 6.00"
  },
  {
    "smiles-repr": "COc1cc(-c2cc(-c3cccnc3)cn2S(=O)(=O)c2cccs2)cc(OC)c1OC",
    "pIC50": "> 6.00"
  },
  {
    "smiles-repr": "COc1ccc(S(=O)(=O)n2cc(CNc3ccc(N4CCOCC4)cc3)cc2-c2cccc(OC)c2)cc1",
    "pIC50": "< 6.00"
  },
  {
    "smiles-repr": "COc1cc(-c2cc(-c3cccnc3)cn2S(=O)(=O)c2cn(C)cn2)cc(OC)c1OC",
    "pIC50": "< 6.00"
  },
  {
    "smiles-repr": "Cc1ccc(S(=O)(=O)n2cc(-c3cncc(C(N)=O)c3)cc2-c2ccc3c(c2)OCO3)cc1",
    "pIC50": "> 6.00"
  }
]
